- Target or test system: human recombinant HDAC6 (Homo sapiens, UniProt Q9UBN7)
- Sequence (Q9UBN7 1-1215): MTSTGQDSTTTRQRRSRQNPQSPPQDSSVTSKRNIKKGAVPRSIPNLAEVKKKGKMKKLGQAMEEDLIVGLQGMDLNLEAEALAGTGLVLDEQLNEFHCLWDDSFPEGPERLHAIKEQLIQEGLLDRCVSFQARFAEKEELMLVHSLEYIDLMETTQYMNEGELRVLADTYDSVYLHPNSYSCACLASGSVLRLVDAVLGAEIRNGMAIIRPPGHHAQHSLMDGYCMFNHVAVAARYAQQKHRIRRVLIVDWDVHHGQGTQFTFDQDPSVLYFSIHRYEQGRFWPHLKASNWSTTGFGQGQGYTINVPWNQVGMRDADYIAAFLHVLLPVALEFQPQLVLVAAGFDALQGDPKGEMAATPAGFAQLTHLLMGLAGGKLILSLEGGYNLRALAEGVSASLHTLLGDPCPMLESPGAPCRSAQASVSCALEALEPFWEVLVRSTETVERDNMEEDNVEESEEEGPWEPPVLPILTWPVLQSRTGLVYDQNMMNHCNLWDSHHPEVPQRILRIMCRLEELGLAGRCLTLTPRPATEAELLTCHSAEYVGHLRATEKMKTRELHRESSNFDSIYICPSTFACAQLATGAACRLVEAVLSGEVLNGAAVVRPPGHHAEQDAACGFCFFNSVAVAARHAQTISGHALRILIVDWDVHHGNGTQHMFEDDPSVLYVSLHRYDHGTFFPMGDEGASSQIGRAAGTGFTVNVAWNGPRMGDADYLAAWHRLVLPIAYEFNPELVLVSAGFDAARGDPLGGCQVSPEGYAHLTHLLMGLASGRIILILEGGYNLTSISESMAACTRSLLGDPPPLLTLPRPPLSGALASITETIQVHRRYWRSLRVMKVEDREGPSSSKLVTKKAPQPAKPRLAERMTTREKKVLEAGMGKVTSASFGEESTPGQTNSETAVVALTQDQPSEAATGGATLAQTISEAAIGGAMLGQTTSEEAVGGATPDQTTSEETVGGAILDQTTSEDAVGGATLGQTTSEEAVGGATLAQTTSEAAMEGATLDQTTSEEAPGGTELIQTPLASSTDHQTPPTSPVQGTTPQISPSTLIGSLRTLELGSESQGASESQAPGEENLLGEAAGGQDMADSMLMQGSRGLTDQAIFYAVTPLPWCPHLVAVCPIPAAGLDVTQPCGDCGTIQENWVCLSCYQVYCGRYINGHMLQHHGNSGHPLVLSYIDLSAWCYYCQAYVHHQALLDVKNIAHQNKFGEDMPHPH
- Protocol text: In vitro HDAC enzyme activity inhibition assay (HDAC6)
- Cond: same protocol as the HDAC1 test, human recombinant HDAC6 (Calbiochem)
# IC50 per entry
Write the answer as a number in nM, unit excluded.

These recorded examples may help you get a feel for the data.
Molecule: COC(=O)N1CCC(S(=O)(=O)N(Cc2cn3ccc(-c4nnc(C(F)F)o4)cc3n2)c2cccc(F)c2)CC1 [Compound 4252]
Unit: nM
Recorded number: 110
//
Molecule: O=S(=O)(N1CCN(C2CCOCC2)CC1)N(Cc1cn2ccc(-c3nnc(C(F)F)o3)cc2n1)c1ccccc1 [Compound 4263]
Unit: nM
Recorded number: 126
//
Molecule: O=S(=O)(N1CCN(C2CCCCC2)CC1)N(Cc1cn2ccc(-c3nnc(C(F)F)o3)cc2n1)c1ccccc1 [Compound 4262]
Unit: nM
Recorded number: 299
//
Molecule: CCN1CCC(S(=O)(=O)N(Cc2cn3ccc(-c4nnc(C(F)F)o4)cc3n2)c2ccccc2)CC1 [Compound 4214]
Unit: nM
Recorded number: 180

Can you look up the measured IC50 of O=S(=O)(N1CCN(c2ccccn2)CC1)N(Cc1cn2ccc(-c3nnc(C(F)F)o3)cc2n1)c1ccccc1 [Compound 4274] for me?
150

Can you look up the measured IC50 of CC(CO)N1CCC(S(=O)(=O)N(Cc2cn3ccc(-c4nnc(C(F)F)o4)cc3n2)c2ccccc2)CC1 (centres unmarked) [Compound 4216] for me?
119

Can you look up the measured IC50 of CS(=O)(=O)N1CCC(S(=O)(=O)N(Cc2cn3ccc(-c4nnc(C(F)F)o4)cc3n2)c2ccccc2)CC1 [Compound 4225] for me?
94.4

Can you look up the measured IC50 of CS(=O)(=O)N1CCC(S(=O)(=O)N(Cc2cn3ccc(-c4nnc(C(F)F)o4)cc3n2)c2cccc(F)c2)CC1 [Compound 4251] for me?
95.2

Can you look up the measured IC50 of O=S(=O)(N1CCN(C2CCC2)CC1)N(Cc1cn2ccc(-c3nnc(C(F)F)o3)cc2n1)c1ccccc1 [Compound 4260] for me?
87.3

Can you look up the measured IC50 of O=C(N1CCN(S(=O)(=O)N(Cc2cn3ccc(-c4nnc(C(F)F)o4)cc3n2)c2ccccc2)CC1)C(F)(F)F [Compound 4270] for me?
153
